Assay: qHTS assay for measurement of the activity of small molecule inhibitors on Zika virus induced Caspase-3 activity in human iPSC derived neural progenitor cells (hNPCs) (AID 1224857); also: nearly all actives have a fitted effect of over 65% in size
Settings: hNPCs ZIKV-induced caspase-3/7, Caspase-Glo luminescence, 6 h; series mostly up to 45.7 µM
Protocol: National Center for Advancing Translational Sciences [NCATS] Johns Hopkins University School of Medicine […] The medium for hNPCs consists of DMEM/F12, N2 supplement (ThermoFisher, Cat.# 17502048), NEAA (ThermoFisher, Cat. # 11140050), 2 ug/ml heparin, 2 uM cyclopamine, and B27 (ThermoFisher, Cat. # 17504044). […] The luminescence intensity of the assay plates was measured using a ViewLux plate reader (PerkinElmer). […]
Records with an inconclusive call do not appear. Activity calls are given as the source filed them. Calls follow the shape of the dose curve; as a rule, active = well fitted inhibition curve with a large enough effect; inconclusive = small, poorly fitted or top-dose-only effect; inactive = no such curve, though single readings can be large or run the other way.
Respond using exactly one of the listed classes: active, inactive

Request: Would you mind telling me which call this test gave "CCOC(=O)[C@H]1O[C@H]1C(=O)N[C@@H](CC(C)C)C(=O)NCCC(C)C" ?
Response: inactive

Request: Would you mind telling me which call this test gave CN(C)CCOc1cc(-c2cn[nH]c2)ccc1NC(=O)C1COc2ccccc2O1 (stereo not given) ?
Response: inactive

Request: Would you mind telling me which call this test gave "COc1cc(C=CC(=O)O)ccc1O" ?
Response: inactive

Request: Would you mind telling me which call this test gave "O=C(CO)N1CCC(c2[nH]nc(-c3ccc(Cl)cc3)c2-c2ccncn2)CC1" ?
Response: inactive

Request: Would you mind telling me which call this test gave "c1ccc(CNc2nc(N3CCOc4ccccc43)nc3c2CCCC3)cc1" ?
Response: inactive

Request: Would you mind telling me which call this test gave "O=C(C=Cc1ccc(O)cc1)c1ccc(O)cc1O" ?
Response: active

Request: Would you mind telling me which call this test gave "CN(C)CCOc1ccc(C(=C(CCCl)c2ccccc2)c2ccccc2)cc1" ?
Response: inactive

Request: Would you mind telling me which call this test gave "Cc1ccc(NC(=O)c2ccc(CN3CCN(C)CC3)cc2)cc1Nc1nc(-c2cccnc2)cs1" ?
Response: inactive

Request: Would you mind telling me which call this test gave "Cc1cc2c(cc1C1(c3ccc(C(=O)O)cn3)CC1)C(C)(C)CCC2(C)C" ?
Response: inactive

Request: Would you mind telling me which call this test gave "COc1cc(Nc2nc3ccccc3nc2NS(=O)(=O)c2ccc(NC(=O)c3ccc(C)c(OC)c3)cc2)cc(OC)c1" ?
Response: inactive

Request: Would you mind telling me which call this test gave "CC(C)CNc1ccnc(NCc2csc(-c3ccccc3)n2)n1" ?
Response: inactive

Request: Would you mind telling me which call this test gave "NC(N)=Nc1nc(CSCCC(N)=NS(N)(=O)=O)cs1" ?
Response: inactive

Request: Would you mind telling me which call this test gave "CC(C)(O)CC(=O)NCCn1ccc2ncnc(Nc3ccc(Oc4cccc(C(F)(F)F)c4)c(Cl)c3)c21" ?
Response: inactive

Request: Would you mind telling me which call this test gave "C[C@@H](O)[C@H]1C(=O)N2C(C(=O)OCOC(=O)C(C)(C)C)=C(SC3CN(C4=NCCS4)C3)[C@H](C)[C@H]12" ?
Response: inactive

Request: Would you mind telling me which call this test gave NCC1CCC(C(=O)O)CC1 (stereo not given) ?
Response: inactive

Request: Would you mind telling me which call this test gave "CN[C@@H]1CN(c2ccc3c(=O)c(C(=O)O)cn(-c4nccs4)c3n2)C[C@@H]1OC" ?
Response: inactive

Request: Would you mind telling me which call this test gave "CON(C)C(=O)N1N=C(c2cc(F)ccc2F)S[C@]1(CCCN)c1ccccc1" ?
Response: inactive

Request: Would you mind telling me which call this test gave "Cc1c(C(=O)Nc2ccc(N3C[C@@H](C)O[C@@H](C)C3)nc2)cccc1-c1ccc(OC(F)(F)F)cc1" ?
Response: inactive

Request: Would you mind telling me which call this test gave OC(c1cc(C(F)(F)F)nc2c(C(F)(F)F)cccc12)C1CCCCN1 (stereo not given) ?
Response: inactive

Request: Would you mind telling me which call this test gave "CC(=O)Nc1cccc(-n2c(=O)n(C3CC3)c(=O)c3c(Nc4ccc(I)cc4F)n(C)c(=O)c(C)c32)c1" ?
Response: inactive

* * *

Test: qHTS of pediatric cancer cell lines to identify multiple opportunities for drug repurposing: Primary screen for NB1643 cells (AID 1347099); also: nearly all actives have a fitted effect of over 50% in size
Conditions: NB1643 neuroblastoma viability, CellTiter-Glo luminescence, 48 h; series mostly up to 46 µM
Results filed as inconclusive are left out. The source made the active and inactive calls. The call rests on the fitted dose curve; in most records, active means well fitted cell-killing curve with a large enough effect; inconclusive means small, poorly fitted or top-dose-only effect; inactive means no such curve, though single readings can be large or run the other way.
Respond using exactly one of the listed classes: y for active, n for inactive

Request: Would you mind telling me which call this test gave "O=C(O)c1ccc(O)c2ncc(N3CCOCC3)cc12" ?
Response: y

Request: Would you mind telling me which call this test gave "N#CC1(c2cccc(C(=O)Nc3cc(Oc4ccc5nc(NC(=O)C6CC6)sc5n4)ccc3F)c2Cl)CC1" ?
Response: n

Request: Would you mind telling me which call this test gave "CC(C)Oc1cc(Nc2nc(N[C@@H](C)c3ccc(F)cn3)ncc2Cl)[nH]n1" ?
Response: y

Request: Would you mind telling me which call this test gave "Cc1ccc(NC(=O)c2cccc(N(C)C)c2)cc1NC(=O)c1ccc(O)cc1" ?
Response: y

Request: Would you mind telling me which call this test gave "Cc1nc(C(=O)NCC(=O)O)c(O)c2ccc(Oc3ccccc3)cc12" ?
Response: n

* * *

Test: Quantitative High-Throughput drug screen in 47 multiple myeloma cell lines against the NCATS MIPE library collection: OPM2_DSMZ cell viability assay (AID 1919872); also: nearly all actives have a fitted effect of over 30% in size; also: potency is read from the fitted curve at half-maximal effect
Conditions: OPM2 myeloma viability, CellTiter-Glo ATP luminescence, 48 h; series mostly up to 45.8 µM
Records with an inconclusive call do not appear. The source made the active and inactive calls. Calls come from the whole dose curve; as a rule, active = well fitted cell-killing curve with a large enough effect; inconclusive = small, poorly fitted or top-dose-only effect, or effect the other way; inactive = no such curve, though single readings can be large or run the other way.
Recorded endpoint: Potency

compound=N#Cc1c(N(CC(=O)O)CC(=O)O)sc(C(=O)O)c1CC(=O)O assay_result=inactive
compound=CNC(=O)[C@H](Cc1ccccc1)NC(=O)[C@H](CC(C)C)[C@H](CSc1cccs1)C(=O)NO assay_result="18.7 µM (active)"
compound=O=C(O)c1nc(=O)[nH]c(=O)[nH]1 assay_result=inactive
compound="CC1(C)C(N(O)C(=O)Nc2ccc(Cl)cc2)N(c2ccc(Cl)cc2)C(=O)N1CC(=O)NN=CC=Cc1ccc([N+](=O)[O-])o1 (centres undefined)" assay_result="18.7 µM (active)"
compound=O=C(O)c1ccc(O)c2ncc(N3CCOCC3)cc12 assay_result=inactive
compound=CN1CC(=O)NC1=NC(=O)Nc1cccc(Cl)c1 assay_result=inactive
compound=C[C@@]1(C(=O)Nc2ccc(F)nc2)CCCN1c1nc(Nc2cc(C3CC3)[nH]n2)c2cccn2n1 assay_result="7.43 µM (active)"
compound=CC1=C[C@@H]2[C@@H]([C@@H](O)C[C@@]3(C)[C@H]2C[C@@H](C)[C@]3(O)C(=O)CO)[C@@]2(C)Cc3cnn(-c4ccccc4)c3C=C12 assay_result="20.9 µM (active)"

For the next question, use this compound.
Request: Which Potency reading was recorded for the compound "CCCCC[C@H](O)C=C[C@H]1[C@H](O)CC(=O)[C@H]1CCCCCCC(=O)O" ?
Response: inactive

* * *

I'd be grateful if you could share measured max response for these entries.
System: CRL-7250
Assay: Cytotoxic Profiling of Annotated Libraries Using Quantitative High-Throughput Screening (AID 1296008); also: % is scaled to controls: 0 for no effect and ±100 for the full control effect; nearly all actives have a fitted effect of over 60% in size
Details: Five cell lines viability, CellTiter-Glo ATP luminescence, 48-72 h; stronger effect = lower value
Results filed as inconclusive are left out. Calls of active or inactive are those of the source. Calls come from the whole dose curve; as a rule, active = well fitted inhibition curve with a large enough effect; inconclusive = small, poorly fitted or top-dose-only effect; inactive = flat fitted curve, though single readings scatter.

Request: Which max response reading was recorded for the compound "O=c1[nH]c(=O)n([C@H]2C[C@@H](O)[C@@H](CO)O2)cc1I" ?
Response: -2.59% (inactive)

Request: Which max response reading was recorded for the compound "CCNC(=O)[C@H]1O[C@@H](n2cnc3c(N)nc(NCCc4ccc(CCC(=O)O)cc4)nc32)[C@H](O)[C@H]1O" ?
Response: 4.93% (inactive)

Request: Which max response reading was recorded for the compound "CNC(=O)c1cc(COc2nnc(Nc3ccc(Cl)cc3)c3ccoc23)ccn1" ?
Response: -22.5% (inactive)

Request: Which max response reading was recorded for the compound "CN(C)c1ccc(-c2nc3ncc(Cl)c(N4CCN(CC(=O)Nc5nccs5)CC4)c3[nH]2)cc1" ?
Response: -24% (inactive)

Request: Which max response reading was recorded for the compound CC(NCCc1ccc(O)cc1)C(O)c1ccc(O)cc1 (configuration not stated) ?
Response: -0.502% (inactive)

Request: Which max response reading was recorded for the compound CCCCC(C=O)NC(=O)C(CC(C)C)NC(=O)OCc1ccccc1 (configuration not stated) ?
Response: -8.38% (inactive)

Request: Which max response reading was recorded for the compound "CC(=O)NCCC(=O)N[C@@H](CCC(N)=O)C(=O)N[C@@H](CO)C(=O)N[C@@H](CCC(N)=O)C(=O)N[C@@H](CCC(N)=O)C(=O)N[C@H](C(=O)N[C@@H](Cc1ccccc1)C(=O)N[C@]1(C)CCCCCCC=CCCC[C@@](C)(C(=O)N[C@@H](CCC(N)=O)C(=O)N[C@@H](CC(N)=O)C(N)=O)NC(=O)[C@H](CC(C)C)NC(=O)[C@H](CC(C)C)NC(=O)[C@@H](CCCNC(=N)N)NC(=O)[C@H](Cc2c[nH]c3ccccc23)NC(=O)[C@H](CC(C)C)NC(=O)[C@H](CC(N)=O)NC1=O)[C@H](C)O" ?
Response: 1.13% (inactive)

Request: Which max response reading was recorded for the compound "Cc1cc(OCCCS(C)(=O)=O)cc(C)c1-c1cccc(COc2ccc3c(c2)OC[C@H]3CC(=O)O)c1" ?
Response: -33.3% (inactive)

Request: Which max response reading was recorded for the compound "CC(O)=C(C#N)C(=O)Nc1ccc(C(F)(F)F)cc1" ?
Response: -8.07% (inactive)

Request: Which max response reading was recorded for the compound "CCCCOCCOc1nc(-c2ccc(C(=O)O)c(F)c2)sc1C" ?
Response: -34.6% (inactive)

Request: Which max response reading was recorded for the compound "Cn1c(=O)c(Oc2ccc(F)cc2F)cc2cnc(NC3CCOCC3)nc21" ?
Response: -20.5% (inactive)

Request: Which max response reading was recorded for the compound "C[C@]12CC[C@@H]3c4ccc(O)cc4CC[C@H]3[C@H]1[C@@H](O)[C@@H](O)[C@H]2O" ?
Response: 0.316% (inactive)

Request: Which max response reading was recorded for the compound "COc1cc2c(cc1OC)CC(=O)N(CCCN(C)C[C@H]1Cc3cc(OC)c(OC)cc31)CC2" ?
Response: 4.25% (inactive)

Request: Which max response reading was recorded for the compound "O=[N+]([O-])c1ccc(Nc2ccccc2-c2ccccc2)c2nonc12" ?
Response: -7.85% (inactive)

Request: Which max response reading was recorded for the compound "COc1cc2c(cc1OC)[C@@H]1Cc3ccc(OC)c(OC)c3CN1CC2" ?
Response: -7.12% (inactive)

Request: Which max response reading was recorded for the compound "CCC(=C(c1ccc(O)cc1)c1ccc(OCCNC)cc1)c1ccccc1" ?
Response: -6.43% (inactive)

Request: Which max response reading was recorded for the compound "O=S(=O)(O)c1ccc2cc(N=Nc3cc(S(=O)(=O)O)c4cccnc4c3O)ccc2c1" ?
Response: -1.21% (inactive)
